test: Metabolic stability in liver microsomes, rat; assay type: in vitro ADME; conditions: Sprague Dawley, 0.5 mg/mL microsomes, NADPH, 45 minutes, 37° C., read-out: Half-life in liver microsomes (t1/2, minutes)
Form field: half-life (one value per entry).
Record the value in min, omitting the unit from your answer.

// known answers, use as guide
// half-life lookup, compound = Nc1ncc(-c2cn(C34CC(C3)C4)c([C@@H](O)C(F)(F)F)n2)cc1OC(F)(F)F [Compound 13, reference compound] , result: 77

Data point: Nc1ncc(-c2cn(C34CC(F)(C3)C4)c([C@@H](O)C(F)(F)F)n2)cc1OC(F)(F)F (single isomer, unassigned) ; half-life = 154

Sure, the documented half-life for CC(C)C(O)c1nc(-c2cnc(N)c(C(F)(F)F)c2)cn1C12CC(C1)C2 (stereo not shown) [Compound 14, reference compound] is 27

Query compound follows.
The value of half-life measured for the compound CC(C)[C@H](O)c1nc(-c2cnc(N)c(OC(F)(F)F)c2)cn1C12CC(N3CCOCC3)(C1)C2 [Compound 15, reference compound] turned out to be 3000

----------
The following compounds are shown together with reported half-life values.
assay: Metabolic stability in liver microsomes, human; type: in vitro ADME; conditions: 0.5 mg/mL microsomes, NADPH, 45 minutes, 37° C., read-out: Half-life in liver microsomes (t1/2, minutes)
Express the result in min but write the number alone.

Below, each entry is followed by its recorded half-life result.
So, Nc1ncc(-c2cn(C34CC(C3)C4)c([C@@H](O)C(F)(F)F)n2)cc1OC(F)(F)F [Compound 13, reference compound] ? Its half-life was 121

Measured half-life, CC(C)[C@@H](O)c1nc(-c2cnc(N)c(OC(F)(F)F)c2)cn1C12CC(N3CCC(F)(F)CC3)(C1)C2 (single isomer, unassigned) : 297

Entry under test: CC(C)[C@@H](O)c1nc(-c2cnc(N)c(C(F)(F)F)c2)cn1C12CC(N3CCC(F)(F)CC3)(C1)C2 (single isomer, unassigned) . Its half-life was 70

Lab note: next compound to report on.
Measured half-life of CC(C)[C@H](O)c1nc(-c2cnc(N)c(C(F)(F)F)c2)cn1C12CC(C1)C2 [Compound 14b, reference compound] : 26

----------
biological target: human DLK (Homo sapiens (Human), UniProt Q12852); assay: DLK Kd determination (KINOMEscan KdELECT, DiscoveRx); assay type: binding
Sequence (Q12852 whole entry): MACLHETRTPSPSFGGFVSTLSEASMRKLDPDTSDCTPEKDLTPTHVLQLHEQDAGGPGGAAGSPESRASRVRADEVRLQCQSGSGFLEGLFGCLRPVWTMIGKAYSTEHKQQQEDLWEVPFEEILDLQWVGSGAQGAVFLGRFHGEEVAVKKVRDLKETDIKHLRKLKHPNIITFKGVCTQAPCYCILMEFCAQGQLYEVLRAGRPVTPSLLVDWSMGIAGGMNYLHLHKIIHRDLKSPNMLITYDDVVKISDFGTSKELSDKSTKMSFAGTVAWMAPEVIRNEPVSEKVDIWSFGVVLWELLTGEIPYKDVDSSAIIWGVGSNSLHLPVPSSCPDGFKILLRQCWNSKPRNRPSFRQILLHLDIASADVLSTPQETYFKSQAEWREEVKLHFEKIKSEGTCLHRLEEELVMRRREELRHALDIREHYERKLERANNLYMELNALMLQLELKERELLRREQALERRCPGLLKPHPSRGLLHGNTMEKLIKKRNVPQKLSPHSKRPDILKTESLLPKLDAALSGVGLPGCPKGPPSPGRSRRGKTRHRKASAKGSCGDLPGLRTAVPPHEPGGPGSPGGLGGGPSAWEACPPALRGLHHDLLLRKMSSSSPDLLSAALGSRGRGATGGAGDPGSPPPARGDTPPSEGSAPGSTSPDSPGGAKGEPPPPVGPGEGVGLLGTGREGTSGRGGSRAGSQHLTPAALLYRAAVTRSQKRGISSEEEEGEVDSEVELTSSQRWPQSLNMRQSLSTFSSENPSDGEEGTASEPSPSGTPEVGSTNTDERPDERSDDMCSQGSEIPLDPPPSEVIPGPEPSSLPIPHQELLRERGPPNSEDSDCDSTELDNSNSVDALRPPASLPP
PARAMETER: Kd
Please answer in the form of a number followed by its unit of measurement.

For "Nc1ncc(-c2cn(C34CC(F)(C3)C4)c([C@H](O)C(F)(F)F)n2)cc1OC(F)(F)F" the molecule record lists Kd as 120 nM

----------
assay: Metabolic stability in liver microsomes, dog; type: in vitro ADME; conditions: Beagle, 0.5 mg/mL microsomes, NADPH, 45 minutes, 37° C., read-out: Half-life in liver microsomes (t1/2, minutes)
PARAMETER: half-life (min)
Only the number, expressed in min, is required.

CC(C)[C@H](O)c1nc(-c2cnc(N)c(C(F)(F)F)c2)cn1C12CC(F)(C1)C2 (single isomer, unassigned) has a reported half-life of 355

More entries:
Recorded half-life (compound Nc1ncc(-c2cn(C34CC(C3)C4)c([C@@H](O)C(F)(F)F)n2)cc1OC(F)(F)F [Compound 13, reference compound] ): 109

The recorded half-life for entry Nc1ncc(-c2cn(C34CC(N5CCC(F)(F)CC5)(C3)C4)c([C@H](O)C(F)(F)F)n2)cc1OC(F)(F)F (single isomer, unassigned) equals 240

The compound listed as Nc1ncc(-c2cn(C34CC(F)(C3)C4)c([C@@H](O)C(F)(F)F)n2)cc1OC(F)(F)F (single isomer, unassigned) has a reported half-life of 287

The reported half-life of the compound CC(C)[C@H](O)c1nc(-c2cnc(N)c(C(F)(F)F)c2)cn1C12CC(C1)C2 [Compound 14b, reference compound] was 154

----------
assay: Metabolic stability in liver microsomes, rat; format: in vitro ADME; settings: Sprague Dawley, 0.5 mg/mL microsomes, NADPH, 45 minutes, 37° C., read-out: Half-life in liver microsomes (t1/2, minutes)
PARAMETER: half-life (min)
Hi! Could you send only the number? It should be in min, unit omitted.

Example compounds with recorded half-life:
get_value(item= Nc1ncc(-c2cn(C34CC(N5CCC(F)(F)CC5)(C3)C4)c([C@H](O)C(F)(F)F)n2)cc1OC(F)(F)F (single isomer, unassigned) , readout=half-life) returns 581

For record CC(C)[C@H](O)c1nc(-c2cnc(N)c(C(F)(F)F)c2)cn1C12CC(F)(C1)C2 (single isomer, unassigned) the listed half-life is 30

Others:
Lookup result for Nc1ncc(-c2cn(C34CC(N5CCOCC5)(C3)C4)c([C@@H](O)C(F)(F)F)n2)cc1OC(F)(F)F [Compound 16, reference compound] ; measured half-life: 1500

half-life reading for CC(C)[C@H](O)c1nc(-c2cnc(N)c(C(F)(F)F)c2)cn1C12CC(C1)C2 [Compound 14b, reference compound] : 23

The compound listed as CC(C)[C@@H](O)c1nc(-c2cnc(N)c(C(F)(F)F)c2)cn1C12CC(N3CCC(F)(F)CC3)(C1)C2 (single isomer, unassigned) has a reported half-life of 566

Short answer for CC(C)[C@@H](O)c1nc(-c2cnc(N)c(OC(F)(F)F)c2)cn1C12CC(N3CCC(F)(F)CC3)(C1)C2 (single isomer, unassigned) : half-life was 201

----------
Assay: Metabolic stability in liver microsomes, mouse
Format: in vitro ADME, CD-1 mouse
Conditions: CD-1, liver microsomes, 0.5 mg/mL microsomes, NADPH, 45 minutes, 37° C., read-out: Half-life in liver microsomes (t1/2, minutes)
Experimental: The test compound was incubated with liver microsomes (0.5 mg/mL) from CD-1 mouse, Sprague Dawley rat, Beagle dog, Cynomolgus monkey, and human in the presence of NADPH for 45 minutes at 37° C. The % parent remaining over time was determined by LC-MS/MS, using peak area ratios. Half-life (t1/2) was calculated using the following equation: t1/2=ln2/k, where k is the rate constant of parent decay over time (slope of the plot of log[% parent remaining] versus time).
PARAMETER: half-life (min)
Output spec: scalar in min, unitless text.

# half-life of CC(C)[C@@H](O)c1nc(-c2cnc(N)c(OC(F)(F)F)c2)cn1C12CC(N3CCC(F)(F)CC3)(C1)C2 (single isomer, unassigned) [Example 8a] = 322

Record CC(C)[C@H](O)c1nc(-c2cnc(N)c(OC(F)(F)F)c2)cn1C12CC(N3CCOCC3)(C1)C2 [Compound 15, reference compound] , field half-life: 1840

We next turn to a different molecule, shown below.
Briefly, half-life measured for CC(C)[C@H](O)c1nc(-c2cnc(N)c(C(F)(F)F)c2)cn1C12CC(F)(C1)C2 (single isomer, unassigned) [Example 4b] : 71

----------
Reported AUC(0-t) is given for each of the following molecules.
test: Mouse pharmacokinetics, single dose; type: in vivo, male C57BL/6 mice; details: mouse, plasma; male C57BL/6 mice, oral dose 10 mg/kg
Supply the numeric figure in µM·h, leaving out any unit text.

Entry CC(C)[C@@H](O)c1nc(-c2cnc(N)c(OC(F)(F)F)c2)cn1C12CC(N3CCC(F)(F)CC3)(C1)C2 (single isomer, unassigned) , AUC(0-t) reported as 41.4

Noted for CC(C)[C@H](O)c1nc(-c2cnc(N)c(C(F)(F)F)c2)cn1C12CC(F)(C1)C2 (single isomer, unassigned) : its AUC(0-t) reads 8.67

Per the records, this molecule ( Nc1ncc(-c2cn(C34CC(C3)C4)c([C@@H](O)C(F)(F)F)n2)cc1OC(F)(F)F [Compound 13, reference compound] ) has AUC(0-t) equal to 14.4

For reference, reported AUC(0-t) for Nc1ncc(-c2cn(C34CC(F)(C3)C4)c([C@@H](O)C(F)(F)F)n2)cc1OC(F)(F)F (single isomer, unassigned) stands at 111

Just so you know, measured AUC(0-t) for CC(C)[C@H](O)c1nc(-c2cnc(N)c(C(F)(F)F)c2)cn1C12CC(C1)C2 [Compound 14b, reference compound] came out at 3.62

---
Memo: Nc1ncc(-c2cn(C34CC(N5CCC(F)(F)CC5)(C3)C4)c([C@H](O)C(F)(F)F)n2)cc1OC(F)(F)F (single isomer, unassigned) , reported AUC(0-t): 39.6

// recorded AUC(0-t) for Nc1ncc(-c2cn(C34CC(N5CCOCC5)(C3)C4)c([C@@H](O)C(F)(F)F)n2)cc1OC(F)(F)F [Compound 16, reference compound] : 70.3

----------
experiment: Rat pharmacokinetics, single dose; type: in vivo, Wistar Han rats; conditions: rat, in vivo; Wistar Han rats, oral dose 3 mg/kg
PARAMETER: bioavailability (%)
Numbers only here, please. The scale is %.

# example entries with known answers
compound Nc1ncc(-c2cn(C34CC(F)(C3)C4)c([C@@H](O)C(F)(F)F)n2)cc1OC(F)(F)F (single isomer, unassigned) , bioavailability observed: 103

# bioavailability of Nc1ncc(-c2cn(C34CC(N5CCC(F)(F)CC5)(C3)C4)c([C@H](O)C(F)(F)F)n2)cc1OC(F)(F)F (single isomer, unassigned) = 95.9

# evaluate next
Kindly note the recorded bioavailability for Nc1ncc(-c2cn(C34CC(C3)C4)c([C@@H](O)C(F)(F)F)n2)cc1OC(F)(F)F [Compound 13, reference compound] , which is 86.3
